Reported values of protein stability index for individual entries
B1: RIT1 (parent)
chain: FHALVREIRRKEKEAVLAMEKKSK

Variants of: B1
Test: protein stability index of a GFP-peptide fusion (GPS, HEK-293T) (PSI 1-6); higher = more stable;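 also: lentivirally expressed fusions sorted by FACS into six bins by GFP to DsRed ratio, PSI derived from sequencing read proportions per bin multiplied by bin number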
Conditions: c terminus: a fixed tail appended
Field format: numeric only.

K11G :: 2
F1T :: 4.16
R6W :: 1.81
M19F :: 2.23

I have this variant here, V16G , and I need its recorded protein stability index.
1.7

Same read-out for K11W ?
2.11
